Tested on: Clostridium sporogenes DSM 1664
ASSAY_NOTES: growth (OD595) fold change vs plate DMSO controls (fold change (ratio)); higher = more growth
CONDITION: 20 µM; incubation time: 27 h, anaerobic, 37 °C
Classification field: enter met for growth values not below 1, not met for values below it.

COMPOUND	CLASS_ASSIGNMENT
CC(Oc1ccc(Oc2nc3ccc(Cl)cc3o2)cc1)C(=O)O (racemic)	met
Nc1nc(N)nc(N)n1 [Melamine]	not met
CS(=O)(=O)c1cc(C(F)(F)F)ccc1C(=O)c1cnoc1C1CC1	not met
ClC1C(Cl)C(Cl)C(Cl)C(Cl)C1Cl (stereo not given)	met
CNC(C)(C)Cc1ccccc1 [Mephentermine hemisulfate]	met
CC(C)=CC1C(C(=O)OCc2cccc(Oc3ccccc3)c2)C1(C)C (stereo not given) [Phenothrin]	not met
CNC(=O)Oc1cccc(/N=C/N(C)C)c1	not met
CC[C@H]1CCC[C@H](O[C@H]2CC[C@H](N(C)C)[C@@H](C)O2)[C@@H](C)C(=O)C2=C[C@@H]3[C@@H](C=C(C)[C@@H]4C[C@@H](O[C@@H]5O[C@@H](C)[C@H](OC)[C@@H](OC)[C@H]5OC)C[C@@H]34)[C@@H]2CC(=O)O1.CC[C@H]1CCC[C@H](O[C@H]2CC[C@H](N(C)C)[C@@H](C)O2)[C@@H](C)C(=O)C2=C[C@H]3[C@@H]4C[C@H](O[C@@H]5O[C@@H](C)[C@H](OC)[C@@H](OC)[C@H]5OC)C[C@H]4C=C[C@H]3C2CC(=O)O1	met
CCCC1COC(Cn2cncn2)(c2ccc(Cl)cc2Cl)O1 (stereo not given)	not met
CC(C)C[C@H](CN)CC(=O)O [Pregabalin]	not met
C[N+](C)(C)CCCl	met
